The measured values listed here are drawn from patent US20110166135A1.

Target: PDE10 (PDE10A) (Bos taurus, UniProt A0A3Q1MHJ4)
Construct: isolated and prepared from bovine corpus striatum; from tissue; host or cells: bovine corpus striatum
Sequence (A0A3Q1MHJ4 1-1068): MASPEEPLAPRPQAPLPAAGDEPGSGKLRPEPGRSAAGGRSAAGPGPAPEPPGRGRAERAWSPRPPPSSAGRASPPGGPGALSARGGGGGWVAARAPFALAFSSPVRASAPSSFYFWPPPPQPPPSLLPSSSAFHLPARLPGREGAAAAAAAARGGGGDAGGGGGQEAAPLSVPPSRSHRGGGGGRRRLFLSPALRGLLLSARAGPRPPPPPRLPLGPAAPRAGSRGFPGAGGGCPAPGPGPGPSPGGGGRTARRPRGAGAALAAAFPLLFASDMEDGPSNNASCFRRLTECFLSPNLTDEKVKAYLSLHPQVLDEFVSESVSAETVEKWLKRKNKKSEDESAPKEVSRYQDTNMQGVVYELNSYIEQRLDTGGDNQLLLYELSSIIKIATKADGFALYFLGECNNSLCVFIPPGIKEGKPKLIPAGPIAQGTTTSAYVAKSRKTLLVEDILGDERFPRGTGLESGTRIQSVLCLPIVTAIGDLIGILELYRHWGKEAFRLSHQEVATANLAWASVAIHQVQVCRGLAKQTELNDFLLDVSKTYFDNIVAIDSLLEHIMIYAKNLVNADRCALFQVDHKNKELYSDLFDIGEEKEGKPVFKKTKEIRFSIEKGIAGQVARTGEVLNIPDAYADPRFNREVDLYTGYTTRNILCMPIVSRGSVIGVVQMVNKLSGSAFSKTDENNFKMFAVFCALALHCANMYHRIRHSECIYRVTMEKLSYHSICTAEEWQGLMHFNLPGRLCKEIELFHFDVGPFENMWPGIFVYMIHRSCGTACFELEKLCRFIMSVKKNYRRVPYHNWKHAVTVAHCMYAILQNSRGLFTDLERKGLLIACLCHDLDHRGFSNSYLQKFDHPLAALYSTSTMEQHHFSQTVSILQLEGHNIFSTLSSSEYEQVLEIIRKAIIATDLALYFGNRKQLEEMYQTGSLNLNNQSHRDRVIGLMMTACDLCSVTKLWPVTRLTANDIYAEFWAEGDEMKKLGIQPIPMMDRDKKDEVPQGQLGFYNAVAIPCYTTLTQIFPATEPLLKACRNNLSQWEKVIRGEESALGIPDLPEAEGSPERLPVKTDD
Assay: Measurement of PDE10 inhibitory activity (radiolabeled nucleotide PDE assay, Method-A or Method-B)
Assay type: biochemical
Conditions: Method-B: 96 well plate, 7 nM cAMP, room temperature, 90 min, enzyme from bovine corpus striatum
Lab note - cut at 0.9 nM for IC50: yes if strictly below, no if not.

Task item: Determine whether this compound shows IC50 lower than 0.9 nM (ties excluded): Cc1nc2ccccc2nc1/C=C/c1nc(C(=O)N(C)C2CCOCC2)cc(N2CCC(O)C2)n1 (stereo not drawn)
Reply: no

Task item: Does the reported IC50 of the following compound sit strictly below 0.9 nM? `Cc1nc(/C=C/c2nc(OC3CCOCC3)cc(N3CCCC3)n2)nc(N(C)C)c1C`
Reply: yes

Task item: hey, is IC50 for `Cc1nc2ccccc2nc1/C=C/c1nc(CNC2CCOCC2)cc(N2CCCC2)n1` lower than 0.9 nM or not?
Reply: yes

Task item: Threshold test, IC50 < 0.9 nM: `CN(C)c1nc(/C=C/c2nc(C(=O)NN3CCCCC3)cc(N3CCCC3)n2)nc2ccccc12`
Reply: yes

Task item: Does the reported IC50 of the following compound sit strictly below 0.9 nM? `Cc1cc2ccccc2nc1/C=C/c1nc(C(=O)NC2CCOCC2)cc(N2CCCC2)n1`
Reply: no

Task item: Given the entry `CC(C)=NOc1cc(N2CCCC2)nc(/C=C/c2nc(N(C)C)c3ccccc3n2)n1` , would its reported IC50 be below 0.9 nM?
Reply: yes

Task item: Regarding `Cc1nc2ccccc2nc1/C=C/c1cc(C(=O)NC2CCOCC2)nc(N2CCCC2)n1` , kindly confirm whether its IC50 is beneath 0.9 nM.
Reply: yes

Task item: Take the compound `Cc1nc2ccccc2nc1/C=C/c1nc(C(=O)N(C2CCOCC2)C2CC2)cc(N2CCCC2)n1` and say whether its IC50 is less than 0.9 nM.
Reply: yes

New cases:
Task item: Strictly below 0.9 nM: is that where IC50 of `CCOc1nc2ccccc2nc1CCc1nc(C(=O)NC2CCOCC2)cc(N2CCCC2)n1` sits?
Reply: no

Task item: Here's an entry: `Cc1nc2ccccc2nc1/C=C/c1nc(C(=O)NN2CCCCC2)cc(N2CCCC2)n1` . Is its IC50 below 0.9 nM?
Reply: yes

Task item: Please indicate whether the reported IC50 of `CN(C)c1nc(/C=C/c2nc(OC[C@@H]3CCC(=O)N3)cc(N3CCCC3)n2)nc2ccccc12` is strictly below 0.9 nM.
Reply: yes

Task item: Quick check: does `Cc1nc2ccccc2nc1/C=C/c1nc(C(=O)NC2CCOCC2)cc(N2CCCC2)n1` have IC50 under 0.9 nM?
Reply: yes

Task item: Confirm or reject: IC50 of `CN(C(=O)c1cc(N2CCCC2)nc(/C=C/c2nc3ccccc3nc2C2CC2)n1)C1CCOCC1` lies strictly below 0.9 nM
Reply: no

Task item: Please let me know if `Cc1nc2ccccc2nc1CCc1nc(C(=O)NC[C@@H]2CCCO2)cc(N2CCCC2)n1` shows IC50 below 0.9 nM.
Reply: no

* * *

value-kind: melting point

Task item: Please report the recorded melting point for `COc1ccc(-c2cc(N3CCN(C)CC3)nc(/C=C/c3nc(-n4ccnc4)c4ccccc4n3)n2)cc1OC` .
Reply: 177 to 180 °C

Task item: For the molecule shown here, COc1ccc(-c2cc(N3CCC(NC(=O)CN(C)C)C3)nc(/C=C/c3nc(N(C)C)c4ccccc4n3)n2)cc1OC (stereo not shown) , give the reported melting point.
Reply: 126 to 131 °C

Task item: Using the record for COc1ccc(-c2cc(N3CCC(O)C3)nc(/C=C/c3nc(N(C)C)c4ccccc4n3)n2)cc1OC (stereo not shown) , report its melting point.
Reply: 199 to 201 °C

Pending molecule:
Task item: Any idea what melting point was measured for `COc1ccc(-c2cc(N3CCn4ccnc4C3)nc(/C=C/c3nc(N(C)C)c4ccccc4n3)n2)cc1OC` ?
Reply: 103 to 108 °C

* * *

I'd appreciate it if you could supply IC50 values for the items below.
Target: PDE10 (PDE10A) (Bos taurus, UniProt A0A3Q1MHJ4)
Construct: isolated and prepared from bovine corpus striatum; from tissue; host or cells: bovine corpus striatum
Test: Measurement of PDE10 inhibitory activity (radiolabeled nucleotide PDE assay, Method-A or Method-B)
Type: biochemical
Settings: Method-A: [3H]-cAMP substrate, 37° C., 30 minutes, enzyme from bovine corpus striatum
One number for each entry, in nM.

Sample records with IC50:
Task item: For the compound shown here, Cc1cnc(/C=C/c2nc(-c3ccccn3)cc(N3CCCC3)n2)nc1N(C)C [Example 1.071] , give the reported IC50.
Reply: 31

Task item: Quick check: IC50 of COc1cc(OC)nc(OCc2cc(-c3ccc(OC)c(OC)c3)nc(N3CCCC3)n2)n1 [Example 3.029] ?
Reply: 38

Task item: Return reported IC50; argument: COc1ccc(-c2cc(N3CCCC3)nc(/C=C/c3nc(C)cnc3C)n2)cc1OC [Example 1.057]
Reply: 29

Task item: Param item = Cc1nc(OCc2cc(-c3ccco3)nc(N3CCCC3)n2)nc(N(C)C)c1C [Example 3.017] ; retrieve measured IC50.
Reply: 35

Task item: Can you look up the measured IC50 of COc1ccc(-c2cc(N3CCCC3)nc(/C=C/c3nc(C)nc4c3CCN4C)n2)cc1OC [Example 1.055] for me?
Reply: 9.7

Task item: What value of IC50 has been recorded for this entry: COc1ccc(-c2cc(N3CCn4ccnc4C3)nc(/C=C/c3nc(N(C)C)c4ccccc4n3)n2)cc1OC [Example 1.008]
Reply: 0.44

Hey, can you go through the list below and give me IC50 for every item?
1. COc1ccc(-c2cc(N3CCN(C)CC3)nc(/C=C/c3nc(-n4ccnc4)c4ccccc4n3)n2)cc1OC [Example 1.010]
2. COc1ccc(-c2cc(N3CCN(C)C3=O)nc(/C=C/c3nc(N4CCCC4)c4ccccc4n3)n2)cc1OC [Example 1.013]
3. CN(C)c1nc(OCc2cc(N3CCCC3)nc(-c3cccnc3)n2)nc2ccccc12 [Example 3.034]

Reply:
46
4.2
24
